FYI, the data here is from a collection of fitness landscapes (doi:10.1016/j.celrep.2020.107928).

B1: Caulobacter ParB omega fusion; a variant is named by its letters at X, in order, B8GW30 (parent)
chain: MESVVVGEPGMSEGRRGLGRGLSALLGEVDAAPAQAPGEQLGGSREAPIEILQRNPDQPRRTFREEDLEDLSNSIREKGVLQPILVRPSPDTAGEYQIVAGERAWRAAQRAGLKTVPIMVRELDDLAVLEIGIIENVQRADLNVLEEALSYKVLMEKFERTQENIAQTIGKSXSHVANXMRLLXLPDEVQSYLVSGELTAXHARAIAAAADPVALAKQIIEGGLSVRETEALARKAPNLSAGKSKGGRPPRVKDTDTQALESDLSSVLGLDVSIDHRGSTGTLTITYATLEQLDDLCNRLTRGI

- Variants of: B1
- TEST NAME: one-hybrid fitness for binding parS DNA (scaled: cognate 1, non-cognate 0); higher = stronger binding
- PROTOCOL CONDITIONS: with parS DNA site
Over roughly 81,000 sequences, “one-hybrid fitness for binding parS DNA” has its median near -0.17; the highest 2% begin near 0.51. This is one part of a sample in which the highest values are shown more often than they occur.
RESULT TYPE: one-hybrid fitness for binding parS DNA

Check out these entries, answers already filled in.
{"MUTATION NOTATION": "RFHG", "one-hybrid fitness for binding parS DNA": 0.974}
{"MUTATION NOTATION": "WSQP", "one-hybrid fitness for binding parS DNA": "≤ 0.2"}
{"MUTATION NOTATION": "QSAL", "one-hybrid fitness for binding parS DNA": "≤ 0.2"}
{"MUTATION NOTATION": "RFCG", "one-hybrid fitness for binding parS DNA": 0.895}
{"MUTATION NOTATION": "RYAA", "one-hybrid fitness for binding parS DNA": 0.559}
{"MUTATION NOTATION": "RYFA", "one-hybrid fitness for binding parS DNA": 0.573}
{"MUTATION NOTATION": "NFCG", "one-hybrid fitness for binding parS DNA": "≤ 0.2"}
{"MUTATION NOTATION": "KMRA", "one-hybrid fitness for binding parS DNA": "≤ 0.2"}

The following variants each have a reported value; give each one's one-hybrid fitness for binding parS DNA.
1. NYFA
2. DFRG
3. DYWG

## Result
1. ≤ 0.2
2. ≤ 0.2
3. ≤ 0.2
